- Measurement protocol: PK study, plasma and thighs
- Format: in vivo, mice
- Condition set: mouse, thigh; mice; 25 mg·kg^−1 sc; read-out: concentration at 8 h in thighs
Measurement name: concentration at 8 h (ng/mL)

INSERT INTO assay_data (structure_string, observed_value) VALUES
  ('N#Cc1ccc2nc(SCB(O)O)n(Cc3ccc(C(F)(F)F)cc3C(F)(F)F)c2c1', 20000);

----------
- System: S. aureus NRS144pCN52RI-Venus
- Measurement protocol: Bacterial growth inhibition (OD600) in the fluorescent screening assay
- Type: cell-based, Staphylococcus aureus
- Condition set: compound at 100 mg/L^−1; OD600 after 2 h
Measurement name: % Inhibition of bacterial growth (%)

INSERT INTO assay_data (molecule, assay_target, scale_unit, observed_value) VALUES
  ('OC[C@@H](O)[C@@H](O)c1cn(Cc2ccccc2)c(=S)[nH]1', 'S. aureus NRS144pCN52RI-Venus', '%', 0),
  ('OC[C@@H](O)[C@H](O)[C@H](O)c1cn(Cc2ccccc2)c(=S)[nH]1', 'S. aureus NRS144pCN52RI-Venus', '%', 0),
  ('COC(=O)c1ccc2nc(SC[B-]34OC(=O)C[N+]3(C)CC(=O)O4)n(Cc3ccc(C(F)(F)F)cc3C(F)(F)F)c2c1 (centres unmarked) [Compound 35]', 'S. aureus NRS144pCN52RI-Venus', '%', 33),
  ('O=S(=O)(O)c1nccn1Cc1ccc(C(F)(F)F)cc1C(F)(F)F [Compound 54]', 'S. aureus NRS144pCN52RI-Venus', '%', 0),
  ('N#Cc1cn(Cc2ccc(C(F)(F)F)cc2C(F)(F)F)cn1 [Compound 55]', 'S. aureus NRS144pCN52RI-Venus', '%', 0),
  ('C[N+]12CC(=O)O[B-]1(CSc1nc3ccccc3n1Cc1ccc(C(F)(F)F)cc1C(F)(F)F)OC(=O)C2 (centres unmarked) [Compound 31]', 'S. aureus NRS144pCN52RI-Venus', '%', 13),
  ('O=C(/C=C/c1ccc(F)cc1)NCc1ccc2nc(S(=O)(=O)O)n(Cc3ccc(C(F)(F)F)cc3C(F)(F)F)c2c1 [Compound 26]', 'S. aureus NRS144pCN52RI-Venus', '%', 100);

----------
# % Inhibition of BlaR values compiled below
- Assay target: BlaR (Staphylococcus aureus)
- Measurement protocol: Live-cell fluorescent assay for BlaR inhibition (Venus reporter)
- Type: cell-based, S. aureus NRS144pCN52RI-Venus
- Condition set: compound at 100 mg/L^−1; CBAP 10 mg·L^−1; fluorescence after 2 h
Measurement name: % Inhibition of BlaR (%)

INSERT INTO results (structure_string, observed_value) VALUES
  ('OC[C@@H](O)[C@H](O)[C@H](O)c1cn(Cc2ccccc2)c(=S)[nH]1', 13),
  ('COC(=O)c1ccc2nc(S(=O)(=O)O)n(Cc3ccc(C(F)(F)F)cc3C(F)(F)F)c2c1', 20),
  ('O=S(=O)(O)c1nc2ccccc2n1Cc1ccc(C(F)(F)F)cc1C(F)(F)F', 82),
  ('O=C(/C=C/c1ccc(Cl)cc1Cl)NCc1ccc2nc(S)n(Cc3ccc(C(F)(F)F)cc3C(F)(F)F)c2c1', 75),
  ('Nc1nc2ccc(CO)cc2n1Cc1ccc(C(F)(F)F)cc1C(F)(F)F', 89);

----------
- Test system: CT-19 (NRS676), MRSA, SCCmec IV, bla +
- Measurement protocol: MIC determination and potentiation assay (microdilution broth)
- Assay type: cell-based
- Condition set: Staphylococcus aureus; CT-19 (NRS676); agent alone; read-out: MIC
Measurement name: MIC (mg/L)

INSERT INTO results (compound, observed_value) VALUES
  ('CO[C@@]1(NC(=O)Cc2cccs2)C(=O)N2C(C(=O)O)=C(COC(N)=O)CS[C@@H]21 [FOX, cefoxitin]', 64),
  ('CCO/N=C(\C(=O)N[C@@H]1C(=O)N2C(C(=O)[O-])=C(Sc3nc(-c4cc[n+](C)cc4)cs3)CS[C@H]12)c1nsc(N)n1 [CPT, ceftaroline]', 1),
  ('N#Cc1ccc2nc(SCB(O)O)n(Cc3ccc(C(F)(F)F)cc3C(F)(F)F)c2c1 [Compound 4]', 16),
  ('C[C@@H](O)[C@H]1C(=O)N2C(C(=O)O)=C(S[C@@H]3CN[C@H](C(=O)N(C)C)C3)[C@H](C)[C@H]12 [MEM, meropenem]', 4);

----------
- Test system: S. aureus NRS144pCN52RI-Venus
- Measurement protocol: Bacterial growth inhibition (OD600) in the fluorescent screening assay
- Format: cell-based, Staphylococcus aureus
- Condition set: compound at 100 mg/L^−1; OD600 after 2 h
# % Inhibition of bacterial growth values compiled below
Measurement name: % Inhibition of bacterial growth (%)

INSERT INTO results (compound, scale_unit, observed_value) VALUES
  ('NCc1cn(Cc2ccc(C(F)(F)F)cc2C(F)(F)F)c(S(=O)(=O)O)n1 [Compound 63]', '%', 18),
  ('O=C(CCc1ccc(F)cc1)NCc1ccc2nc(S)n(Cc3ccc(C(F)(F)F)cc3C(F)(F)F)c2c1 [Compound 29]', '%', 0),
  ('NSc1nc([C@H](O)[C@H](O)CO)cn1Cc1ccccc1 [Compound 52]', '%', 0),
  ('O=C(/C=C/c1ccc(F)cc1)NCc1ccc2nc(S)n(Cc3ccc(C(F)(F)F)cc3C(F)(F)F)c2c1 [Compound 23]', '%', 70);

----------
- System: TN-124 (NRS735), MRSA, SCCmec II, bla +
- Measurement protocol: MIC determination and potentiation assay (microdilution broth)
- Assay type: cell-based
- Condition set: Staphylococcus aureus
Label Yes when MIC is strictly below 20 µg/mL; at or above that, label No.

INSERT INTO assay_data (structure_string, class) VALUES
  ('Cc1onc(-c2ccccc2)c1C(=O)N[C@@H]1C(=O)N2[C@@H]1SC(C)(C)[C@@H]2C(=O)O', 'No'),
  ('N#Cc1ccc2nc(SCB(O)O)n(Cc3ccc(C(F)(F)F)cc3C(F)(F)F)c2c1', 'Yes'),
  ('C[C@@H](O)[C@H]1C(=O)N2C(C(=O)O)=C(S[C@@H]3CN[C@H](C(=O)N(C)C)C3)[C@H](C)[C@H]12', 'Yes'),
  ('CCO/N=C(\C(=O)N[C@@H]1C(=O)N2C(C(=O)[O-])=C(Sc3nc(-c4cc[n+](C)cc4)cs3)CS[C@H]12)c1nsc(N)n1', 'Yes'),
  ('CO[C@@]1(NC(=O)Cc2cccs2)C(=O)N2C(C(=O)O)=C(COC(N)=O)CS[C@@H]21', 'No');

----------
- Measurement protocol: XTT cytotoxicity assay
- Assay type: cell-based
- Condition set: human, hepg2 cells; HepG2; at 64 mg·L^−1; read-out: Cell viability
- Description: We evaluated additionally the in vitro cytotoxicity of compound 4 using the XTT assay with HepG2 (liver) cells. Cell viability was 100% at 64 mg·L^−1. XTT assay. Compound 4 was evaluated in triplicate in the XTT assay (XTT cell proliferation assay, Canvax, Spain) with HepG2 cells, as described previously (Eur. J. Med. Chem. 253, 115329 (2023)). GraphPad Prism 5 (San Diego, CA) was used to calculate IC50 values.
Measurement name: viability (%)

INSERT INTO measurements (structure_string, observed_value) VALUES
  ('N#Cc1ccc2nc(SCB(O)O)n(Cc3ccc(C(F)(F)F)cc3C(F)(F)F)c2c1', 100);

----------
- Test system: HI049, MRSA, USA300 clone, SCCmec IV, bla +
- Measurement protocol: MIC determination and potentiation assay (microdilution broth)
- Type: cell-based
- Condition set: Staphylococcus aureus, agent alone
Measurement name: MIC (µg/mL)

INSERT INTO assay_data (compound, measurement_name, scale_unit, observed_value) VALUES
  ('CCO/N=C(\C(=O)N[C@@H]1C(=O)N2C(C(=O)[O-])=C(Sc3nc(-c4cc[n+](C)cc4)cs3)CS[C@H]12)c1nsc(N)n1 [CPT, ceftaroline]', 'MIC', 'µg/mL', 1),
  ('C[C@@H](O)[C@H]1C(=O)N2C(C(=O)O)=C(S[C@@H]3CN[C@H](C(=O)N(C)C)C3)[C@H](C)[C@H]12 [MEM, meropenem]', 'MIC', 'µg/mL', 8),
  ('CO[C@@]1(NC(=O)Cc2cccs2)C(=O)N2C(C(=O)O)=C(COC(N)=O)CS[C@@H]21 [FOX, cefoxitin]', 'MIC', 'µg/mL', 64),
  ('N#Cc1ccc2nc(SCB(O)O)n(Cc3ccc(C(F)(F)F)cc3C(F)(F)F)c2c1 [Compound 4]', 'MIC', 'µg/mL', 16);

----------
- Assay target: BlaR (Staphylococcus aureus, UniProt P18357)
- Sequence (P18357 whole entry): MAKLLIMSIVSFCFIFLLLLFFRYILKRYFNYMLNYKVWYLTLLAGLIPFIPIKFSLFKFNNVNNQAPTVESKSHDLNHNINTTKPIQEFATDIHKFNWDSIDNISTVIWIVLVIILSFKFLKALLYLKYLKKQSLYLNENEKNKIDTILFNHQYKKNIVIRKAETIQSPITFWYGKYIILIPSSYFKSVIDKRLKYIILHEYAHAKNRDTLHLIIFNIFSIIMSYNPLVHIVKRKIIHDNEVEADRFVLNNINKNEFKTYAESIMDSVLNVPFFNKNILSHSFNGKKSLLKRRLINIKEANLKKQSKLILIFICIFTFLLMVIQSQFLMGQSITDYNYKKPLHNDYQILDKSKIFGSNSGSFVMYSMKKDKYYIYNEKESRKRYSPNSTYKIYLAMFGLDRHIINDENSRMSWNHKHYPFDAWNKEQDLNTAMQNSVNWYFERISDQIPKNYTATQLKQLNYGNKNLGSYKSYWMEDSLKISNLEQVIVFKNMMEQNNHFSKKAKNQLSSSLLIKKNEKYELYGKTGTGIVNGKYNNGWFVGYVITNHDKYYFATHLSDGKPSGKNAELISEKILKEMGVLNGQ
- Measurement protocol: Live-cell fluorescent assay for BlaR inhibition (Venus reporter)
- Assay type: cell-based, S. aureus NRS144pCN52RI-Venus
- Condition set: compound at 100 mg/L^−1; CBAP 10 mg·L^−1; fluorescence after 2 h
Measurement name: % Inhibition of BlaR (%)

INSERT INTO results (compound, measurement_name, scale_unit, observed_value) VALUES
  ('O=C(O)c1cn(Cc2ccc(C(F)(F)F)cc2C(F)(F)F)c(S(=O)(=O)O)n1', '% Inhibition of BlaR', '%', 11),
  ('N#Cc1ccc2nc(SCB(O)O)n(Cc3ccc(C(F)(F)F)cc3C(F)(F)F)c2c1', '% Inhibition of BlaR', '%', 98),
  ('OCC1NC(=S)N(c2ccc(C(F)(F)F)cc2)N1 (stereo not drawn)', '% Inhibition of BlaR', '%', 75);

src = patent US20260284011A1
